# System: Saccharomyces cerevisiae
# TEST_NAME: protein stability index of tFT-peptide fusion (C-terminal peptide) (PSI (0-1 scale)); higher = more stable (slower turnover)
# CONDITION_DETAILS: genetic background: cdc53-1; temperature: 37 C
MEASURED_QUANTITY: protein stability index
Please give the numeric answer without any surrounding text.

Some solved cases for reference:
BIOSEQUENCE	protein stability index
GGVFYVFFVFVG	0.39
GKWVWSSFVWFG	0.541
FSVLVVYTRLFQ	0.452

Shifting focus to the sequence that follows.
Endpoint output: protein stability index of "IFAWPFSATIPW" . Value?
0.813

---

# Test system: Saccharomyces cerevisiae
# TEST_NAME: protein stability index of tFT-peptide fusion (C-terminal peptide) (PSI (0-1 scale)); higher = more stable (slower turnover)
# CONDITION_DETAILS: genetic background: doa10 deletion; temperature: 30 C
Class membership depends on protein stability index alone; the intervals are low: < 0.2; intermediate: ≥ 0.2 and < 0.4; high: ≥ 0.4

BIOSEQUENCE	SYSTEM_UNDER_TEST	LABEL
GRLVPVILLKLV	Saccharomyces cerevisiae	low

Sort into band: "PVPERTSATEPP"
high

Given "RALSLPPLLLVL" , name the class its protein stability index places it in.
intermediate

Class (by measured protein stability index) for "WFFTDIVMLVRV"
intermediate

In plain terms, what class is "DIGCLWSKTRLC" ?
intermediate

Record "AEIVCLTDGLLF" — which class?
high

Would you mind sorting "GLYMCSVGCWFR" into the appropriate category?
high

Class? Entry: "LFTRSIRNLKSL"
intermediate

Band assignment needed for "LVRGSRLIVIVG" please.
intermediate

Class? Entry: "LFPLFTLIFVHL"
low

Just checking, what class would you give "CALFLLSSPSPT" here?
high

Classify this sequence: "AYACSILRCKSS"
low

Entry "HPLYWRCVVVLN" belongs to which category?
low

Entry "FCCWCVCFGYSG" belongs to which category?
intermediate

Given "FPFFVFRVWFGA" , name the class its protein stability index places it in.
intermediate

Quick check: band for "PSCLLVAPRFSS"
high

Looking at "YVSIWSPILWLA" , which class would you pick?
low

Category of "WCAMITVFCGSG" , please.
low

---

# Tested on: Saccharomyces cerevisiae
# TEST_NAME: protein stability index of tFT-peptide fusion in wild type (PSI (0-1 scale)); higher = more stable (slower turnover)
# CONDITION_DETAILS: genetic background: wild type
Reported protein stability index maps to class as: low band = under 0.1, middle band = from 0.1 up to 0.2, high band = 0.2 and over

These solved cases illustrate the format of a correct answer.
BIOSEQUENCE	LABEL
PDKRNHLINLLN	middle band
RLIQPLPVQRLN	low band

Below: the item to evaluate.
Into which bin does this sequence go? "LVVYLSCGACIN"
high band

---

# Tested on: Saccharomyces cerevisiae
# TEST_NAME: protein stability index of tFT-peptide fusion (C-terminal peptide) (PSI (0-1 scale)); higher = more stable (slower turnover)
# CONDITION_DETAILS: genetic background: wild type; temperature: 30 C
MEASURED_QUANTITY: protein stability index
Simply state the number, no unit and no words.

# example entries with known answers
BIOSEQUENCE	protein stability index
EREALKSCIIRA	0.641
STTCPTGLTVGR	0.69
TKKKRKKKNTKK	0.685

Consider the sequence shown here: "YVIAMVYGAPWS" What is its recorded protein stability index?
0.607

Given the sequence "SPPTRAPISSIS" , what is its reported protein stability index?
0.733

Requested read-out: protein stability index. Entry: "PSPFFSRPSYLS"
0.718

Field request: protein stability index | item: "CWQMTWSEGLGN"
0.687

For the sequence shown here, "QLPALPPLHSSP" , give the reported protein stability index.
0.698

Using the record for "DCGYPESTGTAF" , report its protein stability index.
0.656

Which value of protein stability index has been reported for "PCPPARSSLALS" in the records?
0.636

I would be grateful if you could share the reported protein stability index for "QVWLLRPAPARV" .
0.598

Given the entry "LGGEVDLGPARG" , report its measured protein stability index.
0.662

Look at this sequence and give its reported protein stability index. "SRGSTGERGRGK"
0.669

Name the reported protein stability index value associated with the sequence "RSFGRVVSCSGC"
0.699

---

# System: Saccharomyces cerevisiae
# TEST_NAME: protein stability index of tFT-peptide fusion in wild type (PSI (0-1 scale)); higher = more stable (slower turnover)
# CONDITION_DETAILS: genetic background: wild type
Answer False if protein stability index is under 0.1, and True if it is 0.1 or more.

Dear colleague, could you confirm whether "KKHKKMQKQKIN" has protein stability index at or above 0.1?
False

Quick check: does "RVTRLDAAYFRI" have protein stability index greater than or equal to 0.1?
True

---

protein stability index for assorted sequences
# Tested on: Saccharomyces cerevisiae
# TEST_NAME: protein stability index of tFT-peptide fusion (C-terminal peptide) (PSI (0-1 scale)); higher = more stable (slower turnover)
# CONDITION_DETAILS: genetic background: das1 deletion; temperature: 37 C
Answer as a number with no unit attached.

BIOSEQUENCE	protein stability index
VALAVRVVVCGA	0.106
FLSLPLFILFLS	0.39
GVRAGVRRAGVG	0.414
IFAWPFSATIPW	0.808
RSSGHLLDGRAF	0.752
LIAPSACNLFLF	0.758

Request - read-out protein stability index | tested on Saccharomyces cerevisiae | sequence "YQHSRSGRNKII"
0.716

GET /values?readout=protein stability index&system=Saccharomyces cerevisiae&item= "VLVFYFCFSFCS"
0.297

Form field - read-out: protein stability index; system: Saccharomyces cerevisiae; submitted item: "CSRTRLHCFTAS"
0.742

Lab note: need protein stability index for "DFCCGVILTCVC" on Saccharomyces cerevisiae, anyone have it?
0.233

So what protein stability index did "PLVLPPINLFLV" get with Saccharomyces cerevisiae?
0.737

Give Saccharomyces cerevisiae protein stability index for "VSPATFLFYFFF"
0.655

---

# Test system: Saccharomyces cerevisiae
# TEST_NAME: protein stability index of tFT-peptide fusion (C-terminal peptide) (PSI (0-1 scale)); higher = more stable (slower turnover)
# CONDITION_DETAILS: genetic background: wild type; temperature: 30 C
# if value of protein stability index reaches 0.7, tag satisfied; if it stays below, tag not satisfied

Past entries and their recorded results:
BIOSEQUENCE	LABEL
EQITSSLQEASE [FSH1 C-terminal 12 aa]	not satisfied
TLGLLCLIFGLP [YOR277C C-terminal 12 aa]	not satisfied
KGGLEGWVKSQL [LYS4 C-terminal 12 aa]	satisfied

Next, consider the following sequence.
Does the sequence GVYMELVKVLFG [YLR177W C-terminal 12 aa] have recorded protein stability index that is 0.7 or more?
not satisfied

---

# Test system: Saccharomyces cerevisiae
# TEST_NAME: protein stability index of tFT-peptide fusion (C-terminal peptide) (PSI (0-1 scale)); higher = more stable (slower turnover)
# CONDITION_DETAILS: genetic background: wild type; temperature: 30 C
protein stability index: recorded values
Keep the answer to the number alone.

BIOSEQUENCE	protein stability index
SRPEPNGLRKLV	0.172

For "PATPPLRFPPSA" , what is its reported protein stability index?
0.668

# query: protein stability index of entry "LSFFICSFFFVL"
0.361

So what does the record say about protein stability index for "PLVLPPINLFLV" ?
0.114

I am curious: what protein stability index value has been reported for "GTEFSNVITYLV" ?
0.389

Query: protein stability index; subject: "GCGWVFWVVDWG"
0.398

Any idea what protein stability index was measured for "FSVLVVYTRLFQ" ?
0.321

Query: protein stability index; subject: "HSPPVPFPPPTS"
0.672

What does the record list as protein stability index for "ARALLGVGWYWV" ?
0.272

Please give the measured protein stability index for this sequence: "GGVVAACRGGIG"
0.348

Fill in the blank: the reported protein stability index of "RLSGACILLSLV" is ____.
0.259

---

We begin with a simple list: items and their reported protein stability index.
# Test system: Saccharomyces cerevisiae
# TEST_NAME: protein stability index of tFT-peptide fusion (C-terminal peptide) (PSI (0-1 scale)); higher = more stable (slower turnover)
# CONDITION_DETAILS: genetic background: das1 deletion; temperature: 30 C

BIOSEQUENCE	MEASUREMENT
YLVSFVAFLRLF	0.422

Report protein stability index for "KLALVYLLIRGL" please.
0.366

Consider the sequence "VFFLVHFHLPMF" and give its measured protein stability index.
0.414

Can you look up the measured protein stability index of "FQPLELFFVCVF" for me?
0.199

Return reported protein stability index; argument: "GGVVAACRGGIG"
0.351

Need protein stability index of "VVWVYSMLFSIW" , thanks.
0.231

Returns the measured protein stability index for the input sequence. Input: "QRFASFFFLHLS"
0.585
